Recorded values, source patent US10517846B2.

run_description: Solubility studies for isotretinoin using non-aqueous solvents
Type: physicochemical
test_parameters: organic solvent or mixture; solvent Isopropyl alcohol
property: solubility (mg/mL)
One number for each entry, in mg/mL.

Prompt: Param item = CC1=C(/C=C/C(C)=C/C=C/C(C)=C\C(=O)O)C(C)(C)CCC1 [isotretinoin] ; retrieve measured solubility.
Completion: 12

---

run_description: Solubility studies for isotretinoin using non-aqueous solvents
Format: physicochemical
test_parameters: organic solvent or mixture; solvent Methanol
property: solubility (µg/mL)
One number for each entry, in µg/mL.

Prompt: Which measured solubility value corresponds to CC1=C(/C=C/C(C)=C/C=C/C(C)=C\C(=O)O)C(C)(C)CCC1 [isotretinoin] ?
Completion: 10000

---

run_description: Solubility studies for isotretinoin using non-aqueous solvents
Assay type: physicochemical
test_parameters: organic solvent or mixture; solvent Dichloromethane
property: solubility

Prompt: Which solubility is reported for this molecule? CC1=C(/C=C/C(C)=C/C=C/C(C)=C\C(=O)O)C(C)(C)CCC1
Completion: 12 mg/mL

---

run_description: Solubility studies for isotretinoin using non-aqueous solvents
Type: physicochemical
test_parameters: organic solvent or mixture; solvent Acetone
property: solubility (mg/mL)
Answers are plain numbers, in mg/mL.

Prompt: # input compound: CC1=C(/C=C/C(C)=C/C=C/C(C)=C\C(=O)O)C(C)(C)CCC1 [isotretinoin] ; wanted: its solubility
Completion: 30
